Values were extracted from patent US20250333515A1.

- measurementTarget: T1, CLL-1 on the surface of CLL-1-positive AML cell lines (HL-60 WT, U937) (human, UniProt Q5QGZ9 1-265)
- T1 construct: whole, on cells; also called HL-60 WT cells; U937 cells
- T1 sequence (looked up): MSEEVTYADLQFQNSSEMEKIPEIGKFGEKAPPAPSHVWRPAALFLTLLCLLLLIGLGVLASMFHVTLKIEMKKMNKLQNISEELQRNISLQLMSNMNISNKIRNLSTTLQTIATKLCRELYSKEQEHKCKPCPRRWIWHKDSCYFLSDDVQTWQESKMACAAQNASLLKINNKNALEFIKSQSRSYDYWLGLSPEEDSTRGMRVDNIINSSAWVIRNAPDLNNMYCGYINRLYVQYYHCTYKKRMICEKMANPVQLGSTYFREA
- procedureSummary: multi-point flow cytometry on HL-60 WT cells, FLAG-tagged binder, anti-FLAG AlexaFluor 488
valueKind: pEC50
Please treat pEC50 as minus the base-10 logarithm of the molar concentration.

Using known records, supply pEC50 for Anti-CLL-1 Binder Clone 4 (scFv, scFv (VL-linker-VH); not shown: FLAG tag) scFv: QSVVTQPPSVSAAPGQKVTISCSGSSPNIGKNYVSWYQQLPGTAPKLLIYDNNKRPSGIPDRFSGSKSGTSATLGITGLQTGDEADYYCGTWDSSLSGYVFGTGTKVTVLGGGGSGGGGSGGGGSQVQLVESGGGVVQPGRSLRLSCAASGFTFSSYGMHWVRQAPGKGLEWVAFISHDGSNKYYADSVKGRSTISRDNSKSTLFLQMNSLRDEDTAVYFCAREGQLTTSWDFFDYWGHGTLVTVSS
8.19
